test: qHTS assay to identify small molecule antagonists of the progesterone receptor (PR) signaling pathway - cell viability counter screen (AID 1346798); details: PR-UAS-bla HEK293T viability, CellTiter-Glo luminescence, 16 h; series mostly up to 92.4 µM;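 also: HEK293T PR-UAS-bla cells stimulated with the agonist R5020; % is scaled to controls: 0 for no effect and ±100 for the full control effect; nearly all actives have a fitted effect of over 50% in size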
Inconclusive results are not listed. The source made the active and inactive calls. Calls follow the shape of the dose curve; as a rule, active = well fitted cell-killing curve with a large enough effect in the repeat runs; inconclusive = weak or mixed curves, or effect the other way; inactive = no such curve, though single readings can be large or run the other way.
Listed below: activity change, negative = cytotoxicity values for each entry.

Example entries begin here.
>>> endpoint_value("NC[C@H]1O[C@H](O[C@H]2[C@H](O[C@@H]3O[C@H](CO)[C@@H](O)[C@H]3O)C(O)[C@H](N)C[C@@H]2N)[C@H](N)[C@@H](O)[C@@H]1O (stereo not given in full)")
"12.4% [at 8.39 µM] (inactive)"
>>> endpoint_value("O=C(O)CN(CCN(CC(=O)O)CC(=O)O)CC(=O)O")
"3.78% [at 3.27 µM] (inactive)"
>>> endpoint_value("CC(C)Cn1cnc2c(N)nc3ccccc3c21")
"10.2% [at 18.9 µM] (inactive)"

stdin: Name the recorded activity change, negative = cytotoxicity of the item `COc1cc2nc(N3CCN(C(=O)c4ccco4)CC3)nc(N)c2cc1OC` in your answer.
stdout: -16.5% [at 18.9 µM] (inactive)

stdin: Name the recorded activity change, negative = cytotoxicity of the item `C[C@H]1NCc2cc(-c3ccc4c(=O)c(C(=O)O)cn(C5CC5)c4c3OC(F)F)ccc21` in your answer.
stdout: -2.19% [at 18.9 µM] (inactive)
